Reported pIC50 values are given for each entry in this list.
molecular target: UniProt Q9HBH9; experiment: MNK2a in vitro kinase assay (Assay 2), ADP-Glo; assay type: biochemical; details: assay 2; read-out: MNK2 IC50
Sequence (Q9HBH9 whole entry): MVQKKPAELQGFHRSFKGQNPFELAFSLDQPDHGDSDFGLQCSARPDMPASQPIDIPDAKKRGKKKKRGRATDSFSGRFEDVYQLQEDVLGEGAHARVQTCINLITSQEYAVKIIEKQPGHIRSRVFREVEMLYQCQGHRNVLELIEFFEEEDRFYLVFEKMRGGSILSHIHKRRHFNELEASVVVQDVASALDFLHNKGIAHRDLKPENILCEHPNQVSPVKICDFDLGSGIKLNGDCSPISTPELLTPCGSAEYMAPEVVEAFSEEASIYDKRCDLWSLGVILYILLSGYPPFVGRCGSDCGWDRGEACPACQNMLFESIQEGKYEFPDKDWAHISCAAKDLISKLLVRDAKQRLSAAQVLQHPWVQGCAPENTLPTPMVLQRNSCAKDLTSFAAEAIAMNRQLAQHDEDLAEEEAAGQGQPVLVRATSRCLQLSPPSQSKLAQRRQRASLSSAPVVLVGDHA
As a rule, pIC50 stands for the negative log10 of the concentration, concentration in M.

Cc1cc(N=S2(=O)CCCCC2)cc2ncnc(Nc3ccc(F)cc3O[C@H]3COC[C@@H]3O)c12 [Example 2.38]
8.52
CS(C)(=O)=Nc1cc(F)c2c(Nc3ccc(F)cc3O[C@H]3COC[C@@H]3O)ncnc2c1 [Example 2.55]
8.52
CC[S@](C)(=O)=Nc1cc(C)c2c(Nc3ccc(F)cc3O[C@H]3COC[C@@H]3O)ncnc2c1 (single isomer, unassigned) [Example 14.11]
8.40
CO[C@@H]1C=C[C@@H](Oc2cc(F)ccc2Nc2ncnc3cc(N=S(C)(C)=O)cc(C)c23)CO1 (racemic) [Example 13.1]
8.22
Cc1cc(N=S(C)(=O)C2CCOCC2)cc2ncnc(Nc3ccc(F)cc3O[C@@H]3COC[C@@H]3O)c12 (mixture of isomers) [Example 2.65]
8.00

Which measured pIC50 value corresponds to O=S1(=Nc2cc(Cl)c3c(Nc4cccnc4O[C@H]4COC[C@@H]4O)ncnc3c2)CCC1 [Example 1.13] ? 8.40

What value of measured pIC50 is listed for COc1cc(N=S(C)(C)=O)cc2ncnc(Nc3ccc(F)cc3O[C@H]3COC[C@@H]3O)c12 [Example 9.4] ? 8.15

Entry under review: CC(=O)N1C[C@@H](O)[C@H](Oc2cc(F)ccc2Nc2ncnc3cc(N=S4(=O)CCCC4)cc(C)c23)C1 [Example 2.13] . Reported pIC50? 7.80

Which measured pIC50 value corresponds to CS(C)(=O)=Nc1cc(OCCF)c2c(Nc3ccc(F)cc3O[C@H]3COC[C@@H]3O)ncnc2c1 [Example 9.8] ? 7.41

I have this molecule here, Cc1cc(N=S2(=O)CCCC2)cc2ncnc(Nc3ccc(F)cc3O[C@@H]3CN(S(C)(=O)=O)C[C@H]3O)c12 [Example 2.12] , and I need its recorded pIC50. 8.52

# pIC50 lookup, item CO[C@@H]1CN(C(C)=O)C[C@H]1Oc1cc(F)ccc1Nc1ncnc2cc(N=S3(=O)CCCC3)cc(C)c12 [Example 6.2] 6.73

What does the record list as pIC50 for CO[C@@H]1CN(C(=O)OCc2ccccc2)C[C@H]1Oc1ncccc1Nc1ncnc2cc(N=S(C)(C)=O)cc(C)c12 [Example 2.17] ? 7.68

May I ask what pIC50 has been recorded for O=S1(=Nc2cc(Cl)c3c(Nc4ccc(F)cc4O[C@H]4COC[C@H]4O)ncnc3c2)CCCC1 (single isomer, unassigned) [Example 14.10] ? 8.70

GET /values?readout=pIC50&item= CC(=O)O[C@@H]1COC[C@@H]1Oc1cc(F)ccc1Nc1ncnc2cc(N=S(C)(C)=O)cc(C)c12 (racemic) [Example 6.9] 8.15
